The measurements presented in this section are drawn from ChEMBL document CHEMBL4368912.

pIC50: −log10 of the molar value.
outcomeMeasure: pIC50

(Q) // output pIC50; input Cl.Cl.O=C(CN1CCOCC1)Nc1ccc(OC2CCN(C3CCC3)CC2)cc1 ; system Cytochrome P450 2D6 (Homo sapiens, UniProt P10635)
(A) < 4.35

====

Provide the recorded Ki for the entries that follow.
tgt: Histamine H3 receptor (Homo sapiens)
Sequence (Q9Y5N1 whole entry): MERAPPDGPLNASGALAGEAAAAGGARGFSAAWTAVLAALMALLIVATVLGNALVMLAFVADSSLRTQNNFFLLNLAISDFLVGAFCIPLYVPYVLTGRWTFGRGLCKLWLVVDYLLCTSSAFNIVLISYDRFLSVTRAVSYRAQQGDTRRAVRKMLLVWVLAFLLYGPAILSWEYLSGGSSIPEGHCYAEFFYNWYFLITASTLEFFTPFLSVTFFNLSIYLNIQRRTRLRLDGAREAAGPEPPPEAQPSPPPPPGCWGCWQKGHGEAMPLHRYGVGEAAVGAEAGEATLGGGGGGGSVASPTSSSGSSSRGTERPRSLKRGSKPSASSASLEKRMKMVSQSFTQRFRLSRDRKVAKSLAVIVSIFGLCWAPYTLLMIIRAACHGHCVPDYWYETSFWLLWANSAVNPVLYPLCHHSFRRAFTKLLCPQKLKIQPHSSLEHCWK
testDescription: Displacement of [3]-RAMH from recombinant human histamine H3 receptor expressed in CHO-K1 cell membranes after 60 mins by scintillation counting
The answer is to be given in nM; state only the numeric part.

(Q) For the compound Cl.Cl.O=C(CN1CCCC1CO)Nc1ccc(OC2CCN(C3CCC3)CC2)cc1 (stereo not given) , give its measured Ki value.
(A) 1.2

(Q) Tell me Ki reported for Cc1cc(OC2CCN(C3CCC3)CC2)ccc1NC(=O)CN1CCOCC1
(A) 22.1

(Q) Quote Ki reported for O=C(CN1CCOCC1)Nc1ccc(N2CCN(C3CCC3)CC2)cc1 please.
(A) 532

(Q) Give Ki for the following compound: O=C(Cc1cccnc1)Nc1ccc(OC2CCN(C3CCC3)CC2)cc1
(A) 15.8

====

testDescription: Metabolic stability in rat hepatocytes after 30 mins by LC-MS/MS analysis
Assay type: ADME, cell-based, Hepatocyte
particulars: read-out: Stability
outcomeMeasure: remaining at 0.5 h (%)
Enter your answer as a number in %; do not include the unit.

(Q) Supply reported remaining at 0.5 h belonging to this molecule: Cl.Cl.O=C(CN1CCOCC1)Nc1ccc(OC2CCN(C3CCC3)CC2)cc1
(A) 37

====

pIC50: −log10 of the molar value.
outcomeMeasure: pIC50

(Q) // output pIC50; input Cl.Cl.O=C(CN1CCOCC1)Nc1ccc(OC2CCN(C3CCC3)CC2)cc1 ; system Cytochrome P450 2E1 (Homo sapiens, UniProt P05181)
(A) < 5.00

====

testDescription: Fraction unbound in rat plasma at 1 uM by equilibrium dialysis
Assay type: ADME, cell-free
outcomeMeasure: fraction unbound at 1 µM

(Q) Using the record for Cl.Cl.O=C(CN1CCOCC1)Nc1ccc(OC2CCN(C3CCC3)CC2)cc1 , state its measured fraction unbound at 1 µM.
(A) 0.37

====

testDescription: Apparent permeability across basolateral to apical side in human Caco2 cells at 10 uM
Assay type: ADME, cell-based
particulars: Caco-2
outcomeMeasure: Papp B→A at 10 µM (×10⁻⁶ cm/s)
# output: bare number, implied unit ×10⁻⁶ cm/s

(Q) Quick one: give measured Papp B→A at 10 µM for Cl.Cl.O=C(CN1CCOCC1)Nc1ccc(OC2CCN(C3CCC3)CC2)cc1
(A) 30.8

====

Provide the reported AUC(0-t) at 24 h of each item.
testDescription: AUC (0 to 24 hrs) in Wistar rat at 3 mg/kg, po by LC-MS/MS analysis
Type: ADME, organism-based
Parameters: dose 3 mg/kg, time < 24 hr, route oral
particulars: in vivo

(Q) For the molecule Cl.Cl.O=C(CN1CCCC1)Nc1ccc(OC2CCN(C3CCC3)CC2)cc1 , report AUC(0-t) at 24 h.
(A) 556 ng·h/mL

(Q) Input Cl.Cl.O=C(CN1CCOCC1)Nc1ccc(OC2CCN(C3CCC3)CC2)cc1 , output reported AUC(0-t) at 24 h.
(A) 626 ng·h/mL

(Q) Identify measured AUC(0-t) at 24 h corresponding to Cc1cc(OC2CCN(C3CCC3)CC2)ccc1NC(=O)CN1CCCC1.Cl.Cl
(A) 1350 ng·h/mL

(Q) Please list AUC(0-t) at 24 h recorded for the molecule Cl.Cl.O=C(CN1CCCC1CO)Nc1ccc(OC2CCN(C3CCC3)CC2)cc1 (stereo not given)
(A) 63 ng·h/mL

(Q) Please supply the value of reported AUC(0-t) at 24 h for the item O=C(NCCN1CCOCC1)c1ccc(OC2CCN(C3CCC3)CC2)cc1
(A) 347 ng·h/mL

(Q) Determine from records and report AUC(0-t) at 24 h for O=C1c2ccc(OC3CCN(C4CCC4)CC3)cc2CCN1C1CCN(C2CCC2)CC1
(A) 1430 ng·h/mL

(Q) Give recorded AUC(0-t) at 24 h. CC(C)N1CCC(Oc2ccc(NC(=O)CN3CCOCC3)cc2)CC1.Cl.Cl
(A) 850 ng·h/mL

(Q) Supply recorded AUC(0-t) at 24 h for O=C(Cc1ccncc1)Nc1ccc(OC2CCN(C3CCC3)CC2)cc1.O=C(O)C(O)C(O)C(=O)O here.
(A) 545 ng·h/mL

(Q) Kindly indicate its recorded AUC(0-t) at 24 h. Item: Cl.Cl.O=C(CN1CCCCC1)Nc1ccc(OC2CCN(C3CCC3)CC2)cc1
(A) 1390 ng·h/mL

(Q) // Input: O=C(NCCN1CCCC1)c1ccc(OC2CCN(C3CCCC3)CC2)cc1 . Output its AUC(0-t) at 24 h only.
(A) 205 ng·h/mL
